Data origin: the supplement of paper PMC7877785

- protocolSummary: self-splicing fitness, log relative to wild type (ln ratio); higher = more splicing; Tetrahymena group I intron in knt gene, E. coli kanamycin selection, DiMSum; sequences stand for … in CUCUCU…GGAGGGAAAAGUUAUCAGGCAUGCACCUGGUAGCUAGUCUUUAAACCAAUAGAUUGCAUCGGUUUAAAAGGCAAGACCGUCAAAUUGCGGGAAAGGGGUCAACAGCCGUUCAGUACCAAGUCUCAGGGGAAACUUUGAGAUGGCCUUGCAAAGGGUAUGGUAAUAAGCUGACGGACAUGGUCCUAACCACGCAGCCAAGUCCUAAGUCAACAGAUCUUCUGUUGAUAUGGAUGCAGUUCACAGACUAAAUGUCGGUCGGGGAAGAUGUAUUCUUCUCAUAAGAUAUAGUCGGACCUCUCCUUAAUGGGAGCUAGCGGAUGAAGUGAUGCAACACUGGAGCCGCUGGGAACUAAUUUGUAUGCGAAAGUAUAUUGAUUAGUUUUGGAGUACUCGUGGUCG;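 also: selection with 25 µg/mL kanamycin versus none on LB agar overnight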
- conditionSummary: 37 °C
Use Satisfied when the recorded self-splicing fitness (ln) is no lower than -2; use Not satisfied when it is lower.

Task: Evaluate UCUCAGCAAUAUUACGGGCA : self-splicing fitness (ln) at minimum -2?
Output: Satisfied

Task: Evaluate ACUAAGCAAUAUUACGUGGU : self-splicing fitness (ln) at minimum -2?
Output: Not satisfied

Task: Evaluate CCGGAGCAAUAUUACGUGCU : self-splicing fitness (ln) at minimum -2?
Output: Not satisfied

Task: Evaluate UCUCAGCAAUAUUACGGCCU : self-splicing fitness (ln) at minimum -2?
Output: Satisfied

Task: Evaluate GGGAAGCAAUAUUACGCUCG : self-splicing fitness (ln) at minimum -2?
Output: Satisfied

Task: Evaluate CCGAAGCAAUAUUACGAGAU : self-splicing fitness (ln) at minimum -2?
Output: Not satisfied

Task: Evaluate GUUUAGCAAUAUUACGGGCU : self-splicing fitness (ln) at minimum -2?
Output: Satisfied

###

Provide the reported self-splicing fitness (ln) of each item.
- protocolSummary: self-splicing fitness, log relative to wild type (ln ratio); higher = more splicing; Tetrahymena group I intron in knt gene, E. coli kanamycin selection, DiMSum; sequences stand for … in CUCUCU…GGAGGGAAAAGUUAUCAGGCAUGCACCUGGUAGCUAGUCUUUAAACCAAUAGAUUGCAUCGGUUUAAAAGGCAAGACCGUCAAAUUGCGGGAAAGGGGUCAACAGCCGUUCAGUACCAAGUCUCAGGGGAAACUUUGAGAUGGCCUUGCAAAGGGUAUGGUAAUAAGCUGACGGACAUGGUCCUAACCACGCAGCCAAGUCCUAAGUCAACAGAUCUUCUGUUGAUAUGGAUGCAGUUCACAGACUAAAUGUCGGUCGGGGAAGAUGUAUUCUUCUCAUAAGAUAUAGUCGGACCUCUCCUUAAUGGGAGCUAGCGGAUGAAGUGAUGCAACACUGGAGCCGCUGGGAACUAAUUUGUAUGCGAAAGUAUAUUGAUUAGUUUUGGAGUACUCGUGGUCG
- conditionSummary: 37 °C
Lab note: record just the number, no unit beside it.

Task: Request the reported self-splicing fitness (ln) associated with CGUGAGCAAUAUUACGCUUC
Output: -3.07

Task: Request the reported self-splicing fitness (ln) associated with GAGAAGCAAUAUUACGCACG
Output: -0.392

Task: Request the reported self-splicing fitness (ln) associated with GCUUAGCAAUAUUACGUUCA
Output: -1.21

Task: Request the reported self-splicing fitness (ln) associated with GACCAGCAAUAUUACGAGGA
Output: -0.408

Task: Request the reported self-splicing fitness (ln) associated with UAACAGCAAUAUUACGGGAC
Output: -1.89

Task: Request the reported self-splicing fitness (ln) associated with AGGCAGCAAUAUUACGGUUC
Output: -1.8

Task: Request the reported self-splicing fitness (ln) associated with CUACAGCAAUAUUACGUGUC
Output: -2.73

Task: Request the reported self-splicing fitness (ln) associated with UGUCAGCAAUAUUACGGAGA
Output: -0.867

Task: Request the reported self-splicing fitness (ln) associated with CCUGAGCAAUAUUACGACAC
Output: -2.19

Task: Request the reported self-splicing fitness (ln) associated with UGCUAGCAAUAUUACGGGCA
Output: -2.02

Task: Request the reported self-splicing fitness (ln) associated with GUCUAGCAAUAUUACGGUAA
Output: -0.172

Task: Request the reported self-splicing fitness (ln) associated with GAGGAGCAAUAUUACGUAGU
Output: -2.19

Task: Request the reported self-splicing fitness (ln) associated with GCCAAGCAAUAUUACGAAGC
Output: -2.51

Task: Request the reported self-splicing fitness (ln) associated with CAGCAGCAAUAUUACGCGCG
Output: -1.3

Task: Request the reported self-splicing fitness (ln) associated with GUCUAGCAAUAUUACGUACU
Output: -0.0535

Task: Request the reported self-splicing fitness (ln) associated with UCUGAGCAAUAUUACGCCUG
Output: -2.18

###

Provide the reported self-splicing fitness (ln) of each item.
- protocolSummary: self-splicing fitness, log relative to wild type (ln ratio); higher = more splicing; Tetrahymena group I intron in knt gene, E. coli kanamycin selection, DiMSum; sequences stand for … in CUCUCU…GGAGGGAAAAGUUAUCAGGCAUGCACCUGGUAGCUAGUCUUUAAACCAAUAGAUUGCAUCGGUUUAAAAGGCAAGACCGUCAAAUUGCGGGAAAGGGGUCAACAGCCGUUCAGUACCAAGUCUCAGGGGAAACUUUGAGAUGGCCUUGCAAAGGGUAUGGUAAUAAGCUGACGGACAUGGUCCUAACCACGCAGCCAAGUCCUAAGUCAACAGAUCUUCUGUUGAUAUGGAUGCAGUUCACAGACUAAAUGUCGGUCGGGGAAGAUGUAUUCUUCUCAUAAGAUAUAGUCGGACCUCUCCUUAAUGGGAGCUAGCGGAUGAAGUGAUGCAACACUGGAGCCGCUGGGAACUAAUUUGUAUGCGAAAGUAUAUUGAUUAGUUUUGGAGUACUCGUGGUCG
- conditionSummary: 37 °C
Lab note: record just the number, no unit beside it.

Task: Request the reported self-splicing fitness (ln) associated with GAUUAGCAAUAUUACGCAGA
Output: -1.16

Task: Request the reported self-splicing fitness (ln) associated with GAGCAGCAAUAUUACGGUCC
Output: -1.63

Task: Request the reported self-splicing fitness (ln) associated with CCUAAGCAAUAUUACGCCUU
Output: -2.79

Task: Request the reported self-splicing fitness (ln) associated with UGUUAGCAAUAUUACGGCGC
Output: -2.22

Task: Request the reported self-splicing fitness (ln) associated with CUGUAGCAAUAUUACGGUUU
Output: -2.69

Task: Request the reported self-splicing fitness (ln) associated with GAAGAGCAAUAUUACGCUGC
Output: -2.63

Task: Request the reported self-splicing fitness (ln) associated with GCUGAGCAAUAUUACGCGUG
Output: -0.878

Task: Request the reported self-splicing fitness (ln) associated with UGACAGCAAUAUUACGUCUG
Output: -0.119

Task: Request the reported self-splicing fitness (ln) associated with UCGCAGCAAUAUUACGACGA
Output: -0.408

Task: Request the reported self-splicing fitness (ln) associated with GUGAAGCAAUAUUACGUGCA
Output: -0.0531

Task: Request the reported self-splicing fitness (ln) associated with UGGUAGCAAUAUUACGACAC
Output: -1.69

Task: Request the reported self-splicing fitness (ln) associated with CUCUAGCAAUAUUACGGAUU
Output: -2.75

Task: Request the reported self-splicing fitness (ln) associated with AUGGAGCAAUAUUACGGCGC
Output: -0.677

Task: Request the reported self-splicing fitness (ln) associated with CAGGAGCAAUAUUACGUAUU
Output: -2.2

Task: Request the reported self-splicing fitness (ln) associated with UCUCAGCAAUAUUACGUCCG
Output: -2.26

Task: Request the reported self-splicing fitness (ln) associated with AUAGAGCAAUAUUACGGAAG
Output: -1.45

Task: Request the reported self-splicing fitness (ln) associated with AGUCAGCAAUAUUACGAAUA
Output: -1.22

Task: Request the reported self-splicing fitness (ln) associated with UCUUAGCAAUAUUACGGGGA
Output: -1

Task: Request the reported self-splicing fitness (ln) associated with UUUCAGCAAUAUUACGCCUA
Output: 0.414

Task: Request the reported self-splicing fitness (ln) associated with UGUUAGCAAUAUUACGUCUG
Output: 0.393

Task: Request the reported self-splicing fitness (ln) associated with UACCAGCAAUAUUACGCGAA
Output: -0.386

Task: Request the reported self-splicing fitness (ln) associated with AAUUAGCAAUAUUACGUACU
Output: 0.263

Task: Request the reported self-splicing fitness (ln) associated with CUCUAGCAAUAUUACGGAUG
Output: -0.418

Task: Request the reported self-splicing fitness (ln) associated with CCGCAGCAAUAUUACGUUUA
Output: -2.35

Task: Request the reported self-splicing fitness (ln) associated with GAGUAGCAAUAUUACGGGCG
Output: -0.779

Task: Request the reported self-splicing fitness (ln) associated with GGUGAGCAAUAUUACGUAUU
Output: -1.94

Task: Request the reported self-splicing fitness (ln) associated with AUACAGCAAUAUUACGCAUU
Output: -1.4

Task: Request the reported self-splicing fitness (ln) associated with GAUGAGCAAUAUUACGACUA
Output: -0.933

Task: Request the reported self-splicing fitness (ln) associated with AAGGAGCAAUAUUACGUGUC
Output: -2.12

Task: Request the reported self-splicing fitness (ln) associated with GCGCAGCAAUAUUACGGUCC
Output: 0.23

Task: Request the reported self-splicing fitness (ln) associated with AGUUAGCAAUAUUACGGUAU
Output: -1.34

Task: Request the reported self-splicing fitness (ln) associated with AGAAAGCAAUAUUACGAAAC
Output: -2.93

Task: Request the reported self-splicing fitness (ln) associated with GCACAGCAAUAUUACGUCUG
Output: -1.27

Task: Request the reported self-splicing fitness (ln) associated with GCGUAGCAAUAUUACGAUCG
Output: -0.204

Task: Request the reported self-splicing fitness (ln) associated with CGCAAGCAAUAUUACGGGUC
Output: -3.77

Task: Request the reported self-splicing fitness (ln) associated with CAGCAGCAAUAUUACGUGUC
Output: -2.79

Task: Request the reported self-splicing fitness (ln) associated with UAACAGCAAUAUUACGGUGG
Output: -1.06

Task: Request the reported self-splicing fitness (ln) associated with CCUCAGCAAUAUUACGAUUC
Output: -2.44

Task: Request the reported self-splicing fitness (ln) associated with AUCUAGCAAUAUUACGGAAA
Output: -1.66

Task: Request the reported self-splicing fitness (ln) associated with UCGAAGCAAUAUUACGCGGC
Output: -2.87

Task: Request the reported self-splicing fitness (ln) associated with GCCUAGCAAUAUUACGAGUA
Output: -1.88

Task: Request the reported self-splicing fitness (ln) associated with UGCUAGCAAUAUUACGAAGA
Output: -2.09

Task: Request the reported self-splicing fitness (ln) associated with GGUAAGCAAUAUUACGGGUA
Output: -1.71

Task: Request the reported self-splicing fitness (ln) associated with CGGGAGCAAUAUUACGGAAG
Output: -1.3

Task: Request the reported self-splicing fitness (ln) associated with ACCAAGCAAUAUUACGUGGC
Output: -2.94

Task: Request the reported self-splicing fitness (ln) associated with UCUCAGCAAUAUUACGAAAA
Output: -2.59

Task: Request the reported self-splicing fitness (ln) associated with ACGCAGCAAUAUUACGCUUC
Output: -2.48

Task: Request the reported self-splicing fitness (ln) associated with UUGGAGCAAUAUUACGAUAU
Output: -2.49

Task: Request the reported self-splicing fitness (ln) associated with GUAAAGCAAUAUUACGAGCA
Output: 0.673

Task: Request the reported self-splicing fitness (ln) associated with CUGGAGCAAUAUUACGGCUA
Output: -1.11

Task: Request the reported self-splicing fitness (ln) associated with GAAGAGCAAUAUUACGUUGC
Output: -2.25

Task: Request the reported self-splicing fitness (ln) associated with UCUAAGCAAUAUUACGGUAU
Output: -1.56

Task: Request the reported self-splicing fitness (ln) associated with AGUAAGCAAUAUUACGCGUU
Output: -2.8

Task: Request the reported self-splicing fitness (ln) associated with UAUAAGCAAUAUUACGCCGA
Output: 0.235

Task: Request the reported self-splicing fitness (ln) associated with AGUUAGCAAUAUUACGCGUG
Output: -0.946

Task: Request the reported self-splicing fitness (ln) associated with CCCGAGCAAUAUUACGAGCA
Output: -2.04

Task: Request the reported self-splicing fitness (ln) associated with CUAGAGCAAUAUUACGUAGA
Output: -1.5

Task: Request the reported self-splicing fitness (ln) associated with GUAUAGCAAUAUUACGAACA
Output: -1.21

Task: Request the reported self-splicing fitness (ln) associated with UGACAGCAAUAUUACGACUU
Output: 0.389

Task: Request the reported self-splicing fitness (ln) associated with UAGCAGCAAUAUUACGUGUA
Output: -0.62

Task: Request the reported self-splicing fitness (ln) associated with UCCCAGCAAUAUUACGGGGC
Output: -2.84

Task: Request the reported self-splicing fitness (ln) associated with AGCGAGCAAUAUUACGAAGA
Output: -2.72

Task: Request the reported self-splicing fitness (ln) associated with UGUUAGCAAUAUUACGAAAA
Output: -1.28

Task: Request the reported self-splicing fitness (ln) associated with AAAUAGCAAUAUUACGACCU
Output: 0.265

Task: Request the reported self-splicing fitness (ln) associated with CAUUAGCAAUAUUACGGGCU
Output: -2.7

Task: Request the reported self-splicing fitness (ln) associated with UCCCAGCAAUAUUACGGUGG
Output: -2.5

Task: Request the reported self-splicing fitness (ln) associated with UACUAGCAAUAUUACGAUGA
Output: -0.321
